- Test Description: growth inhibition of GSK3B-pretreated HCT116 cells – cell-based, CellTiter-Glo, 0.2 to 20 µM (AID 1117336)
- Condition Description: HCT116 viability after GSK3B inhibitor, at 20 µM, stronger effect = higher value
Rule: viability decrease below 10% gives TRUE. Equal to or above 10% gives FALSE.

Example entries and their recorded answers appear below.
>>> label_value("CCCCCCCCCCCCCCCC(=O)O")
"TRUE"
>>> label_value("COc1cc(C(=O)N2CCOCC2)cc(OC)c1OC")
"FALSE"
>>> label_value("O=C1CN(/N=C/c2ccc([N+](=O)[O-])o2)C(=O)N1")
"FALSE"
>>> label_value("CC(=O)Oc1ccc2c(c1)CC[C@@H]1[C@@H]2CC[C@]2(C)[C@@H](O)CC[C@@H]12")
"FALSE"
>>> label_value("CC(=O)Nc1ncc([N+](=O)[O-])s1")
"TRUE"

In: For this compound, is viability decrease lower than 10%? N[C@@H](CC(=O)O)C(=O)O
Out: TRUE

In: For this compound, is viability decrease lower than 10%? CNCCCC1c2ccccc2C=Cc2ccccc21
Out: TRUE

In: For this compound, is viability decrease lower than 10%? OC1(c2ccc(Cl)c(C(F)(F)F)c2)CCN(CCCC(c2ccc(F)cc2)c2ccc(F)cc2)CC1
Out: FALSE

In: For this compound, is viability decrease lower than 10%? COc1cc2c(cc1OC)[C@@H]1CC(=O)[C@@H](CC(C)C)CN1CC2
Out: TRUE

In: For this compound, is viability decrease lower than 10%? Cc1ncc([N+](=O)[O-])n1C
Out: FALSE

In: For this compound, is viability decrease lower than 10%? CC(C(=O)O)c1ccc2c(c1)CC(=O)c1ccccc1S2 (stereo unspecified)
Out: TRUE

In: For this compound, is viability decrease lower than 10%? NS(=O)(=O)c1cc(C(=O)O)cc(N2CCCC2)c1Oc1ccccc1
Out: TRUE

In: For this compound, is viability decrease lower than 10%? O[C@@H](CNC[C@H](O)[C@H]1CCc2cc(F)ccc2O1)[C@@H]1CCc2cc(F)ccc2O1
Out: FALSE
